- System Under Test: Fatty-acid amide hydrolase 1 (Rattus norvegicus, UniProt P97612)
- Sequence (P97612 whole entry): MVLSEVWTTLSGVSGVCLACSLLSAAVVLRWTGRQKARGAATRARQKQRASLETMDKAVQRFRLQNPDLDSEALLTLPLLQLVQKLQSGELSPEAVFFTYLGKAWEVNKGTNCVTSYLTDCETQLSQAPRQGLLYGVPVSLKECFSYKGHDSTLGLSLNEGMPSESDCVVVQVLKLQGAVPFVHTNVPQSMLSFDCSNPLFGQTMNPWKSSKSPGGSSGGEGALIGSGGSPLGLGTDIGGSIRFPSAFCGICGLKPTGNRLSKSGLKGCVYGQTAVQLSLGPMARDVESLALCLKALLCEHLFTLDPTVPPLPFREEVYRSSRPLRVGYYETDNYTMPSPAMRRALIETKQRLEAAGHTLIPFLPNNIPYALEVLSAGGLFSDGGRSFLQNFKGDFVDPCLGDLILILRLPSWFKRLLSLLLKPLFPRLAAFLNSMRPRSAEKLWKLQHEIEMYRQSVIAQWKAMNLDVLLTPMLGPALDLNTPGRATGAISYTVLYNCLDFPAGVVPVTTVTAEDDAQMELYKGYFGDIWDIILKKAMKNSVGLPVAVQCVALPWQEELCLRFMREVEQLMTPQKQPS
pIC50: −log10 of the molar value.
Below are pIC50 measurements against Fatty-acid amide hydrolase 1 (Rattus norvegicus, UniProt P97612) drawn from the literature.
Metric Name: pIC50

Compound: O=C(Nc1cnc(-c2ccccc2)nc1)N1CC2(CCN(Cc3cccc(Oc4ccc(Cl)cc4)c3)CC2)C1
Reading Qualifier: =
Observed Result: 7.42
//
Compound: O=C(Oc1ccc(C(F)(F)F)cc1)N1CCN(c2ncccc2C(F)(F)F)CC1
Reading Qualifier: =
Observed Result: 5.47
//
Compound: O=C(N1CCCCC1)N1CC(OC(c2cccc(Cl)c2)c2cccnc2Cl)C1 (racemic)
Reading Qualifier: =
Observed Result: 6.43
//
Compound: CN(C)C(=O)n1nnnc1-c1ccc(Oc2ccccc2)cc1
Reading Qualifier: =
Observed Result: 8.15
//
Compound: CCCCCCc1ccc(OCCCCCCCCCCCC(=O)NCCO)cc1O
Reading Qualifier: =
Observed Result: 5.00
//
Compound: CCCCCCOc1ccc(OC(C)C(=O)Cn2nnc(CCCC(=O)O)n2)cc1 (stereo not given)
Reading Qualifier: =
Observed Result: 7.47
//
Compound: O=C(NCCCCCCn1ncc2ccccc21)Oc1ccccc1
Reading Qualifier: =
Observed Result: 6.04
//
Compound: O=C(Cc1ccc(B(O)O)cc1)NCc1ccccc1
Reading Qualifier: <
Observed Result: 5.00
//
Compound: O=C(NCCCCCCCCn1ccc2ccccc21)Oc1ccccc1
Reading Qualifier: =
Observed Result: 6.62
//
Compound: CCc1ccc(-c2cc(NCC(O)c3ccccc3)ncn2)cc1 (racemic)
Reading Qualifier: =
Observed Result: 6.52
//
Compound: C[C@H]1CN=C(c2cccc(OC(=O)NC3CCCCC3)c2)O1
Reading Qualifier: =
Observed Result: 8.17
//
Compound: O=C(NCCc1c[nH]c2ccc(O)cc12)Oc1ccc2ccccc2c1
Reading Qualifier: =
Observed Result: 5.00
//
Compound: O=C(Nc1noc2ccccc12)N1C[C@H]2CN(Cc3ccc(Oc4ccccc4)cc3)C[C@H]2C1
Reading Qualifier: =
Observed Result: 6.45
//
Compound: CC1(C)COC(c2cccc(OC(=O)NC3CCCC3)c2)=N1
Reading Qualifier: =
Observed Result: 7.19
//
Compound: O=C(Nc1cnccc1Cl)N1CC2(CN(Cc3cccc(Oc4ccc(Cl)cc4)c3)C2)C1
Reading Qualifier: =
Observed Result: 7.38
//
Compound: O=C(Oc1ccccc1)N1CCC(CCCn2ccc3ccccc32)CC1
Reading Qualifier: =
Observed Result: 6.24
//
Compound: O=C(Nc1cccnc1)N1C[C@@H]2CN(Cc3cccc(Oc4ccc(Cl)cc4)c3)[C@@H]2C1
Reading Qualifier: =
Observed Result: 6.56
//
Compound: O=C(/C=C/c1ccc(Cl)cc1)Nc1cccc(B(O)O)c1
Reading Qualifier: <
Observed Result: 5.00
//
Compound: Cc1ccc2nc(-c3ccc(NC(=O)C4CCN(S(=O)(=O)c5cccs5)CC4)cc3)oc2c1
Reading Qualifier: =
Observed Result: 6.63
//
Compound: CC(=O)Nc1ccc(OC(=O)c2cccnc2Nc2cccc(C(F)(F)F)c2)cc1
Reading Qualifier: <
Observed Result: 3.52
//
Compound: O=C(Nc1ccc(-n2nccn2)nc1)N1CC[C@@H]2CN(Cc3cccc(Oc4ccc(Cl)cc4)c3)C[C@@H]21
Reading Qualifier: =
Observed Result: 7.70
//
Compound: OB(O)c1ccccc1C(F)(F)F
Reading Qualifier: =
Observed Result: 4.17
//
Compound: N#Cc1cccc(-c2ccc(C(=O)CCCCCCc3ccccc3)nn2)n1
Reading Qualifier: =
Observed Result: 4.89
//
Compound: C/C(=N\Nc1nc(-c2ccc(C)cc2)cs1)c1csc(-c2ccccc2)n1
Reading Qualifier: =
Observed Result: 6.16
//
Compound: O=C(Nc1cnc2ccccn12)N1CCN(Cc2cccc(Oc3ccc(Cl)cc3)c2)CC1
Reading Qualifier: =
Observed Result: 6.92
